Reference for the values: paper PMC7231638

assayed target: Mre11 Y187C (in MRNBD);Rad50NBD (Pyrococcus furiosus;Pyrococcus furiosus, UniProt Q8U1N9;P58301 1-426;1-195+709-882, Y187C|internal_change)
assay notes: fluorescence polarization
quantity name: Kd (nM)
Give the value in nM but do not write nM after it.

Tell me its Kd given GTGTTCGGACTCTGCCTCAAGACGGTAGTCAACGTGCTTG (ssDNA) [FAM 40-mer ssDNA] as the entry.
210
